tested on: Micrococcus luteus; assay: Antimicrobial activity against Micrococcus luteus MTCC 2470 assessed as growth inhibition after 24 hrs by well diffusion method; format: functional; conditions: MTCC 2470, 24 h
measured property: MIC

Challenge: State the recorded MIC for this entry: COc1ccc(C(c2c(O)c3ccc4ccccc4c3oc2=O)c2c(N)n(C)c(=O)n(C)c2=O)cc1OC (stereo not given)
Response given: > 150 µg/mL

Challenge: Please answer likewise for Cc1ccc2oc(=O)c(C(c3ccc(F)cc3)c3c(N)n(C)c(=O)n(C)c3=O)c(O)c2c1 (stereo not given)
Response given: > 150 µg/mL

Challenge: Please answer likewise for Cc1cc(O)c(C(c2ccc(C(F)(F)F)cc2)c2c(N)n(C)c(=O)n(C)c2=O)c(=O)o1 (stereo not given)
Response given: > 150 µg/mL

Challenge: Please answer likewise for Cc1cc(O)c(C(c2c(N)n(C)c(=O)n(C)c2=O)C2CCCCC2)c(=O)o1 (stereo not given)
Response given: > 150 µg/mL

Challenge: Please answer likewise for Cc1ccc(-c2nn(-c3ccccc3)cc2C(c2c(O)c3cc(F)ccc3oc2=O)c2c(N)n(C)c(=O)n(C)c2=O)cc1 (stereo not given)
Response given: 0.58 µg/mL

Challenge: Please answer likewise for Cn1c(N)c(C(c2ccc(C#N)cc2)c2c(O)c3ccc4ccccc4c3oc2=O)c(=O)n(C)c1=O (stereo not given)
Response given: 150 µg/mL

Challenge: Please answer likewise for COc1cc(C(c2c(O)c3cc(F)ccc3oc2=O)c2c(N)n(C)c(=O)n(C)c2=O)ccc1O (stereo not given)
Response given: 9.37 µg/mL

Challenge: Please answer likewise for Cn1c(N)c(C(c2ccc(C#N)cc2)c2c(O)c3cc(F)ccc3oc2=O)c(=O)n(C)c1=O (stereo not given)
Response given: > 150 µg/mL

Challenge: Please answer likewise for Cn1c(N)c(C(c2cn(-c3ccccc3)nc2-c2ccc([N+](=O)[O-])cc2)c2c(O)c3cc(F)ccc3oc2=O)c(=O)n(C)c1=O (stereo not given)
Response given: 2.34 µg/mL

Challenge: Please answer likewise for COc1ccc(-c2nn(-c3ccccc3)cc2C(c2c(O)c3cc(F)ccc3oc2=O)c2c(N)n(C)c(=O)n(C)c2=O)cc1 (stereo not given)
Response given: 2.34 µg/mL

Challenge: Please answer likewise for Cc1ccc2oc(=O)c(C(c3ccc(C#N)cc3)c3c(N)n(C)c(=O)n(C)c3=O)c(O)c2c1 (stereo not given)
Response given: > 150 µg/mL

Challenge: Please answer likewise for Cc1ccc2oc(=O)c(C(c3ccc(C(C)C)cc3)c3c(N)n(C)c(=O)n(C)c3=O)c(O)c2c1 (stereo not given)
Response given: 75 µg/mL

Challenge: Please answer likewise for Cn1c(N)c(C(c2cn(-c3ccccc3)nc2-c2ccccc2)c2c(O)c3cc(F)ccc3oc2=O)c(=O)n(C)c1=O (stereo not given)
Response given: 2.34 µg/mL

Challenge: Please answer likewise for Cn1c(N)c(C(c2ccc(C(F)(F)F)cc2)c2c(O)c3ccc4ccccc4c3oc2=O)c(=O)n(C)c1=O (stereo not given)
Response given: 18.8 µg/mL

Challenge: Please answer likewise for Cn1c(N)c(C(c2cn(-c3ccccc3)nc2-c2ccc(Cl)cc2)c2c(O)c3cc(F)ccc3oc2=O)c(=O)n(C)c1=O (stereo not given)
Response given: 0.58 µg/mL

----------
test system: Micrococcus luteus; assay: Antimicrobial activity against Micrococcus luteus MTCC 2470 assessed as growth inhibition after 24 hrs by well diffusion method; type: functional; details: MTCC 2470, 24 h
measured property: MIC (µg/mL)
API: value field is a number in µg/mL; no unit string.

Challenge: State the recorded MIC for this entry: COc1ccc(-c2nn(-c3ccccc3)cc2C(c2c(O)c3cc(C)ccc3oc2=O)c2c(N)n(C)c(=O)n(C)c2=O)cc1 (stereo not drawn)
Response given: 2.34

Challenge: Please answer likewise for Cc1ccc2oc(=O)c(C(c3cn(-c4ccccc4)nc3-c3ccccc3)c3c(N)n(C)c(=O)n(C)c3=O)c(O)c2c1 (stereo not drawn)
Response given: 2.34

Challenge: Please answer likewise for COc1cc(C(c2c(O)c3cc(F)ccc3oc2=O)c2c(N)n(C)c(=O)n(C)c2=O)cc(OC)c1O (stereo not drawn)
Response given: 18.8

Challenge: Please answer likewise for CCOc1cc(C(c2c(O)c3cc(C)ccc3oc2=O)c2c(N)n(C)c(=O)n(C)c2=O)ccc1O (stereo not drawn)
Response given: 9.37

Challenge: Please answer likewise for O=C(O)c1cn(C2CC2)c2cc(N3CCNCC3)c(F)cc2c1=O [CIPROFLOXACIN]
Response given: 0.58

Challenge: Please answer likewise for COc1ccc(C(c2c(O)c3cc(C)ccc3oc2=O)c2c(N)n(C)c(=O)n(C)c2=O)cc1 (stereo not drawn)
Response given: 75

Challenge: Please answer likewise for Cc1ccc2oc(=O)c(C(c3ccc(C(F)(F)F)cc3)c3c(N)n(C)c(=O)n(C)c3=O)c(O)c2c1 (stereo not drawn)
Response given: 18.8

Challenge: Please answer likewise for CCCC(c1c(O)c2cc(C)ccc2oc1=O)c1c(N)n(C)c(=O)n(C)c1=O (stereo not drawn)
Response given: 75
